# EXPERIMENTAL_SYSTEM: human CD26 on the cell surface (human, UniProt P27487 1-766)
# Sequence (P27487 whole entry): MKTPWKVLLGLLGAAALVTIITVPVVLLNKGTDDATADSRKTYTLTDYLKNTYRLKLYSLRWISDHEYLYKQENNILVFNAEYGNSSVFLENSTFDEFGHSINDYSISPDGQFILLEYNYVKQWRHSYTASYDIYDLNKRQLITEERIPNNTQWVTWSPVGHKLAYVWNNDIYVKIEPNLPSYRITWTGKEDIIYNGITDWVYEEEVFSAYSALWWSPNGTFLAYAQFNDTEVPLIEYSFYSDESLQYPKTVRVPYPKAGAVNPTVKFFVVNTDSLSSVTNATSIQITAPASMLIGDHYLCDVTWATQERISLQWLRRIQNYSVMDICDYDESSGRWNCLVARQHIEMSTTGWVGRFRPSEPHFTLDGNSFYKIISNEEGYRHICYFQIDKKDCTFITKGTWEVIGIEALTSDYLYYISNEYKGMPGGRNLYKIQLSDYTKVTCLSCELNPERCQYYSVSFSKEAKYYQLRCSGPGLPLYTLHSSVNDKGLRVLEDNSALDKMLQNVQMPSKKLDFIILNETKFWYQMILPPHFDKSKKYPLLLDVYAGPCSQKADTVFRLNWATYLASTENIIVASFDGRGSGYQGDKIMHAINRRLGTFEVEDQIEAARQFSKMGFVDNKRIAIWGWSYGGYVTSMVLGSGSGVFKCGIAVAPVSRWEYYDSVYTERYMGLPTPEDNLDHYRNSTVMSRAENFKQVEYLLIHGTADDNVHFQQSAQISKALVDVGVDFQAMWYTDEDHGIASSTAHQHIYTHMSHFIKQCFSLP
# ASSAY_PROCEDURE: cell-based or functional assay
ENDPOINT_NAME: percent inhibition, MTT assay, Jurkat CD26+ cells, 5 ug/ml (%)
Entry rule: numbers only, all in %.

Entry rhuMAb 412 (antibody, human IgG1, V domains shown, X385 VH and X380 VL with human IgG1 and human kappa constant regions; also called X412) VH: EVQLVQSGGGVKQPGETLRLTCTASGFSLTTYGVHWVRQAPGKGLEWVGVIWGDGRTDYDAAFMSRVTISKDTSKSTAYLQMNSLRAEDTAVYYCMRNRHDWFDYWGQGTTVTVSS VL: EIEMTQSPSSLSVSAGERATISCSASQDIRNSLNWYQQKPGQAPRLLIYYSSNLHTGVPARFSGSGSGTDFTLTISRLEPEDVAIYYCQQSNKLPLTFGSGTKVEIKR : reported percent inhibition, MTT assay, Jurkat CD26+ cells, 5 ug/ml = ?
23.6

Entry rhuMAb 410 (antibody, human IgG1, V domains shown) VH: EVQLVQSGGGLKQPGETLRLSCTASGYSLTTYGVHWVRQAPGKGLEWMGVIWGDGRTDYDSSFMSRVTISKDTSKSTAYLQLNSLRAEDTAVYYCTRNRHDWFDYWGQGTTVTVSS VL: DILMTQSPSSLSASPGDRVTISCRASQDIRNNLNWYQQKPGQAPRLLIYYSSNLHSGVPDRFSGSGSGTDFTLTISRLEPEDFAAYYCQQSIKLPLTFGSGTKVEIKR : reported percent inhibition, MTT assay, Jurkat CD26+ cells, 5 ug/ml = ?
33.5

Entry rhuMAb 409 (antibody, human IgG1, V domains shown, CM03 VH and VL with human IgG1 heavy chain constant region and human kappa constant region; also called X409) VH: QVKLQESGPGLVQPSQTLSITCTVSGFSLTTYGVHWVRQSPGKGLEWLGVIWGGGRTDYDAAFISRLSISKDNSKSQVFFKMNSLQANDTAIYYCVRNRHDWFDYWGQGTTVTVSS VL: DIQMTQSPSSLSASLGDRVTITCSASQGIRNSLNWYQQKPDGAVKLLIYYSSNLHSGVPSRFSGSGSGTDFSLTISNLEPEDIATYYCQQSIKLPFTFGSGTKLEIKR : reported percent inhibition, MTT assay, Jurkat CD26+ cells, 5 ug/ml = ?
21.7

Entry rhuMAb 420 (antibody, human IgG1, V domains shown, X420 VH and X380 VL with human IgG1 and human kappa constant regions; also called X420 (IgG1)) VH: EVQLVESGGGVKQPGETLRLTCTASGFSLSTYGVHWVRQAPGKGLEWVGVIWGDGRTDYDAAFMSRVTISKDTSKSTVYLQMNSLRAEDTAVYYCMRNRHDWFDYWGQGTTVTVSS VL: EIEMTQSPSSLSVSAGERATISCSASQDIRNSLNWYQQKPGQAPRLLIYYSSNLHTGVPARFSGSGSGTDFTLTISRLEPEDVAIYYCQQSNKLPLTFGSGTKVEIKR : reported percent inhibition, MTT assay, Jurkat CD26+ cells, 5 ug/ml = ?
15.9
